- assay_details: Toxicity liver stage against HepG2, at 10uM
- Type: cell-based
- Set-up: test concentration 10 uM, cell line HepG2-A16-CD81EGFP
- recorded_conditions: human, HepG2-A16-CD81EGFP cells; read-out: INHIBITION
reported_endpoint: cytotoxicity at 10 µM (%)
Record the value in %, omitting the unit from your answer.

molecule | unit_text | measurement
O=C1NC(c2ccccc2)=N[C@@]12CC[C@@H]1CN(Cc3ccccc3)C[C@@H]12 | % | -5.23
CC(C)CN1CCc2[nH]nc(C(=O)N3CCCC3)c2C1 | % | -98.9
Cc1cc(C(C)NCCN2CCC(N(C)C)CC2)c(C)s1 (stereo unspecified) | % | -0.85
Cc1csc(C(=O)N2CCC3(CC(N(C)c4ccncn4)C3)C2)c1 (stereo unspecified) | % | -11.2
O=C(CSc1nc2c(cnn2CCO)c(=O)[nH]1)NC1CCCCC1 | % | -8.07

Look up cytotoxicity at 10 µM: CCc1nnc2ccc(N3CCN(S(=O)(=O)c4ccc(Cl)s4)CC3)nn12
5.01

And then CN(Cc1nc2ccccc2n1C)CC1CCCN1c1cccnn1 (stereo unspecified) , what is it?
-4.41

And then NC(=O)CCS(=O)(=O)Cc1ccc(OCC(F)(F)F)cc1 , what is it?
-4.16

And then Cc1nc(CN2CCCC(N(C)CCc3ccncc3)C2)no1 (stereo unspecified) , what is it?
-6.93

And then CN(C)CC1[C@H]2CN(C(=O)c3cc(=O)[nH]c4ccc(F)cc34)C[C@@H]12 (stereo partly specified) , what is it?
-6.68

And then Cc1cccc(NCc2ncc(C(C)(C)C)o2)c1 , what is it?
24.3

====

Reported cytotoxicity at 10 µM is given for each of the following compounds.
- assay_details: Toxicity liver stage against HepG2, at 10uM
- Type: cell-based
- Parameters: test concentration 10 uM, cell line HepG2-A16-CD81EGFP
- recorded_conditions: human, HepG2-A16-CD81EGFP cells; read-out: INHIBITION
Record the value in %, omitting the unit from your answer.

Look up cytotoxicity at 10 µM: CN(C)c1nc2c(c(N(C)C)n1)CCN(C(=O)CN1C[C@H]3CC[C@@H]1C3)C2
4.45

And then COCC1(CNc2cc(C(C)C)nc(N)n2)CC1 , what is it?
29.4

And then CCOC[C@@H]1CC[C@H]2[C@H](CCN2S(=O)(=O)Cc2ccccc2)O1 , what is it?
2.84

And then CCN(Cc1noc(C2CC2)n1)C(=O)c1onc2ccccc12 , what is it?
1.61

And then CC(C)c1nnsc1CNC(=O)C1CCCN(C(=O)N(C)C)C1 (centres undefined) , what is it?
-7.73

And then CCc1ccc(S(=O)(=O)Nc2c(C)cccc2C(=O)O)s1 , what is it?
-15.9

And then CC(NC(=O)CN1CCN(c2cccc(Cl)c2)CC1)c1ccco1 (centres undefined) , what is it?
-11.1

And then CS(=O)(=O)N1CCC2(CC1)CC(NCC1CC1)c1ccccc12 (centres undefined) , what is it?
-111

And then Cc1ccc2nc(C(=O)N3CC(c4cccnc4)C3)cn2c1 , what is it?
-7.5

And then CCn1cc(NC(=O)c2cccc(OCC(F)(F)F)n2)cn1 , what is it?
-9.43

And then Cc1ccc(CNC[C@H]2Cn3cc(-c4ccccc4)nc3CO2)cc1 , what is it?
-9.43

====

Reported cytotoxicity at 10 µM is given for each of the following molecules.
- assay_details: Toxicity liver stage against HepG2, at 10uM
- Format: cell-based
- Set-up: test concentration 10 uM, cell line HepG2-A16-CD81EGFP
- recorded_conditions: human, HepG2-A16-CD81EGFP cells; read-out: INHIBITION
Record the value in %, omitting the unit from your answer.

molecule | cytotoxicity at 10 µM (%)
N#Cc1ccc(CN2C[C@@H]3OCC(=O)N(CC(N)=O)[C@@H]3C2)cc1 | -1.51
O=C(NC1CC1)[C@H]1CC[C@@H]2[C@@H](CCN2c2ncc(F)cn2)O1 | -1.65
CN(C)C(=O)C1CCC2(CCN(C(=O)Nc3cccc(F)c3)CC2)O1 (stereo not drawn) | -104

Look up cytotoxicity at 10 µM: O=C(CN1CCCCCC1)N1CCc2nnc(C3CCCNC3)n2CC1 (stereo not drawn)
-5.56

And then Cn1cc(C(=O)NCC(Cc2cccc(F)c2)N2CCCCC2=O)nn1 (stereo not drawn) , what is it?
-1.13

And then CCOC[C@]12COC[C@H]1CN(Cc1ccc(F)c(F)c1)C2 , what is it?
-107

And then CCN(CC)C(=O)c1c(Br)cnn1CC , what is it?
2.63

And then Cc1nc(CN(C)CC(c2cccs2)N2CCOCC2)no1 (stereo not drawn) , what is it?
-2.15

And then O=C(c1nnn(-c2ccccc2Cl)c1-c1ccccn1)N1CCSCC1 , what is it?
4.92

And then O=C(c1cccnc1N1CCOCC1)N1CCCC(n2cncn2)C1 (stereo not drawn) , what is it?
-3.37

And then O=C(c1ccncc1)N1CCN2C[C@H](Oc3cccc(F)c3)C[C@H]2C1 , what is it?
8.28

And then COCCC1(C(=O)O)CCCN(CCOCc2ccccc2)C1 (stereo not drawn) , what is it?
-12.3

And then Cc1nsc(NC(=O)N2CCC(C(C)(C)O)CC2)n1 , what is it?
17.5

And then CC(=O)N1CC(C(=O)N2CCCC(Cn3ccnc3C)C2)C1 (stereo not drawn) , what is it?
1.27

And then O=S(=O)(C1CC1)N1CCO[C@H]2[C@@H](Oc3ncccc3F)CC[C@@H]21 , what is it?
1.67

====

Reported cytotoxicity at 10 µM is given for each of the following molecules.
- assay_details: Toxicity liver stage against HepG2, at 10uM
- Type: cell-based
- Set-up: test concentration 10 uM, cell line HepG2-A16-CD81EGFP
- recorded_conditions: human, HepG2-A16-CD81EGFP cells; read-out: INHIBITION
Record the value in %, omitting the unit from your answer.

Known results for molecules:
molecule | unit_text | cytotoxicity at 10 µM
Cc1ccc(OC2(C(=O)O)CCN(C(=O)c3ccccc3F)CC2)cn1 | % | 2.75
Cc1cnc(CN2CCOC(CNc3cccnn3)C2)cn1 (centres undefined) | % | -5.15
Cc1nc(C)n(C2CCCN(C(=O)c3ccc4c(c3)COC4)C2)n1 (centres undefined) | % | -9.12
Cc1nnc2n1CCN(CC(=O)Nc1cc(C(C)C)no1)C2 | % | -6.93
COc1ccc(C2Nc3ccccc3N=C3CNC(=O)C32)cc1OC (centres undefined) | % | 5.56

Here is another molecule to look at.
Look up cytotoxicity at 10 µM: CC1=N[C@@]2(CC[C@@H]3CNC[C@@H]32)C(=O)N1CC(C)C
2.98

====

Reported cytotoxicity at 10 µM is given for each of the following compounds.
- assay_details: Toxicity liver stage against HepG2, at 10uM
- Assay type: cell-based
- Design: test concentration 10 uM, cell line HepG2-A16-CD81EGFP
- recorded_conditions: human, HepG2-A16-CD81EGFP cells; read-out: INHIBITION
Record the value in %, omitting the unit from your answer.

compound | unit_text | cytotoxicity at 10 µM
Cc1cccc(-c2noc(CN3CCCC(Cn4cncn4)C3)n2)c1 (centres undefined) | % | -3.51
CCOc1cccc2c1OCC(C(=O)NC(C)Cn1cccn1)=C2 (centres undefined) | % | -1.18
CN(Cc1nc(Cc2ccccc2F)no1)CC1Cc2ccccc2O1 (centres undefined) | % | -5.19
CC(C)(C)NC(=O)NCc1cnn2ccccc12 | % | -11.9
O=C(c1coc(COc2cccc3cnccc23)n1)N1CCCCCC1 | % | -128
Cc1ncsc1C(=O)NCCNC(=O)Cc1cccc(F)c1 | % | -0.0716
CC(Cn1ccnc1)NS(=O)(=O)c1ccc(F)c(Cl)c1 (centres undefined) | % | 9.25
Cc1nc(C(=O)N2CCC3(CC2)CC(=O)N(CC2CCCO2)C3)cs1 (centres undefined) | % | 2.34
COc1ccccc1CNc1cnn(CC(F)F)c1 | % | -5.41
O=C(Cc1cccs1)N1Cc2nc(COCC3CC3)oc2C1 | % | 2.55

Look up cytotoxicity at 10 µM: Cc1nn(C)c(N(C)C)c1CNC(C)Cc1c(F)cccc1F (centres undefined)
-1.03

And then Cc1nc[nH]c1CN1CCCC(CNC(=O)c2ccncn2)C1 (centres undefined) , what is it?
-0.334

And then CCn1c(C)nnc1SCCNc1cc(COC)ncn1 , what is it?
6.35

And then Cc1noc(C)c1S(=O)(=O)N1CCC(Oc2cnccn2)CC1 , what is it?
4.95

And then CCCN1CCC(NC(=O)NCCc2nc(CC)c(C)s2)CC1 , what is it?
-19

And then O=C1NCCCC[C@@H]1NC(=O)C1(N2CCCCC2)Cc2ccccc2C1 , what is it?
-4.3
